meta.source: patent US20220380459A1

# MEASURED ON: human CD33 R69G (human) (UniProt P20138)
# Sequence (P20138 18-259 R69G): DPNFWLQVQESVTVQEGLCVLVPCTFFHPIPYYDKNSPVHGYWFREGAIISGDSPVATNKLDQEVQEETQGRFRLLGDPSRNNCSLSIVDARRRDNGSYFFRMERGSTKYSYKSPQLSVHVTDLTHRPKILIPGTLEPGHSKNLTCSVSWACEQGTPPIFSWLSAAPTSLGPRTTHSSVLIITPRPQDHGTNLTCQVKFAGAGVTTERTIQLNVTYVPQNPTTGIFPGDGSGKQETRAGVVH
# TEST DESCRIPTION: SPR, Fab captured, 37C
REPORTED PROPERTY: kon (M⁻¹ s⁻¹)

[[record]]
binder = "ADI-11776 Fab (Fab, V domains shown) VH: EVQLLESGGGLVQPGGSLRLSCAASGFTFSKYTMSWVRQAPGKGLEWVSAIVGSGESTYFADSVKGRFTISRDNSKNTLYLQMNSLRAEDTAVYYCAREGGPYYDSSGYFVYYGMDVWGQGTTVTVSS VL: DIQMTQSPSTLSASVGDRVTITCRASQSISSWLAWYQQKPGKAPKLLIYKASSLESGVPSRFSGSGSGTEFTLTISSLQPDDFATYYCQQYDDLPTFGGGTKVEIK"
reported_property = "kon"
result = "1.98e+06"

[[record]]
binder = "ADI-10161 Fab (Fab, V domains shown) VH: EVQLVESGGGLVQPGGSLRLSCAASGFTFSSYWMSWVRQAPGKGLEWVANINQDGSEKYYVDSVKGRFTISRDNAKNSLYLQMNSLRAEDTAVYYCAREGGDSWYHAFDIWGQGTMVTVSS VL: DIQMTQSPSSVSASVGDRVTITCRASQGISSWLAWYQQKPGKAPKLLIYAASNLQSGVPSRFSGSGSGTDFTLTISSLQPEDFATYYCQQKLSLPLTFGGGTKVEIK"
reported_property = "kon"
result = 629000

[[record]]
binder = "ADI-10157 Fab (Fab, V domains shown) VH: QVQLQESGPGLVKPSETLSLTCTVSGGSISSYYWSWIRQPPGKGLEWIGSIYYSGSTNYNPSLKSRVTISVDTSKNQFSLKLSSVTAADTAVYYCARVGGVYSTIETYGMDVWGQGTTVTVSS VL: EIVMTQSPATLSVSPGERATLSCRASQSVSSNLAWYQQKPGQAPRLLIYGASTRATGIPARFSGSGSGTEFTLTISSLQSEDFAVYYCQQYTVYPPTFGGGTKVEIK"
reported_property = "kon"
result = "1.56e+06"

